Reference source: paper PMC7699381

target: Human serum albumin (HSA) (Homo sapiens, UniProt P02768); assay: Fluorescence quenching of human serum albumin; conditions: Ka (association binding constant), HSA, 298 K
Sequence (P02768 25-609): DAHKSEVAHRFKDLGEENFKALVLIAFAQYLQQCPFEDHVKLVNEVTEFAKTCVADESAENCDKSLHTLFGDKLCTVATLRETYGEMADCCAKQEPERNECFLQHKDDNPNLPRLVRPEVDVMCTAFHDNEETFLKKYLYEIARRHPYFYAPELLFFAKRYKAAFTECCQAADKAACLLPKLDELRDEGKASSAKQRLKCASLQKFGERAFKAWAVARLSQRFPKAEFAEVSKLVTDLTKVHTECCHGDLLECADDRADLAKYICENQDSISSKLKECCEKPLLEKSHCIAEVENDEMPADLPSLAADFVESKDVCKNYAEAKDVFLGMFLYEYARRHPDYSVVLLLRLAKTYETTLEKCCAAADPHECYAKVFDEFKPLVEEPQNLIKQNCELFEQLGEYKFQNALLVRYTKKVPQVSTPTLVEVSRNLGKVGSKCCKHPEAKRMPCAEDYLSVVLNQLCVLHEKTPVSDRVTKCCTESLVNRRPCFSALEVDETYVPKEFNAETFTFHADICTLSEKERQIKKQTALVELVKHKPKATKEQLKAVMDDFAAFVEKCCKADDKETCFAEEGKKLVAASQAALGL
pKd: −log10 of the molar value.
quantity measured: pKd

* CCn1cc(C(=O)O)c(=O)c2cc3c(cc21)OCO3 [oxo, reference compound] | 4.03

###

target: Apo-transferrin (apo-Tf) (Homo sapiens, UniProt P02787); construct: purchased Sigma Aldrich Chemical Co. (Schnelldorf, Germany); assay: Fluorescence quenching of apo-transferrin; type: binding; settings: 298 K
Sequence (P02787 20-698): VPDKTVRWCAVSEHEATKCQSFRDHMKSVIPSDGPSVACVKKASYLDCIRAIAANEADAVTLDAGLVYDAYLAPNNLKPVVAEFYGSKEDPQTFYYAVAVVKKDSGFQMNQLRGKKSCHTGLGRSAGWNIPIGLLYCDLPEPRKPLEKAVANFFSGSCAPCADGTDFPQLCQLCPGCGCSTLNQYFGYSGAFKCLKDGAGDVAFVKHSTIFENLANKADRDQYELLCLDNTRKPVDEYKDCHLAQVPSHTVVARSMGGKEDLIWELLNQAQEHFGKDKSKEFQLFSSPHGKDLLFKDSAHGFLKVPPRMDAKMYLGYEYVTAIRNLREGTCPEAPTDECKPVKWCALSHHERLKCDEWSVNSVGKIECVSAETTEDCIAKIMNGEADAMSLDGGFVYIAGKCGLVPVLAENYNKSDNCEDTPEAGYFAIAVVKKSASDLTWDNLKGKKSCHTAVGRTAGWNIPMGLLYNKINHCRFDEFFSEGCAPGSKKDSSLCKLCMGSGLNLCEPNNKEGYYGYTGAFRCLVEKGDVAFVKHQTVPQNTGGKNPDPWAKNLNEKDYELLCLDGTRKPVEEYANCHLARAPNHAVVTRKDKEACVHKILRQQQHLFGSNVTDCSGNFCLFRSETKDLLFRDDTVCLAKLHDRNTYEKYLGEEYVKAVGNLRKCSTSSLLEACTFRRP
quantity measured: Ka (association binding constant), apo-Tf

• CCn1cc(C(=O)[O][Y]([OH])[O]C(=O)c2cn(CC)c3cc4c(cc3c2=O)OCO4)c(=O)c2cc3c(cc21)OCO3.O [Y oxo, [Y(oxo)(OH)(H2O)]] = 4.40(±1.09) × 10^4 M^−1
